Measurement record for AtPDF1B (Arabidopsis thaliana); quantity recorded: log10 IC50.
Measurement Label: log10 IC50 (log10 of the value in nM)

compound="CCCCC(CC(=O)NO)c1nc(Cc2ccc(C(=O)OC)cc2)no1 (stereo not drawn) [AT018]" reading=2.81
compound="CCCCC(CC(=O)NO)c1nc(Cc2ccc(-c3ccccc3)cc2)no1 (stereo not drawn) [AT014]" reading=2.74
compound="CC(C)(C)OC(=O)N[C@@H](Cc1ccccc1)CN(O)C=O [RAS358]" reading=2.40
compound="CCCCC(CC(=O)NO)c1nc(-c2ccc(C(F)(F)F)cc2)no1 (stereo not drawn) [AT011]" reading=3.78
compound="O=C(C[C@@H](CC1CCCC1)c1nc(Cc2ccc3c(c2)OCO3)no1)NO [AT020]" reading=2.08
compound="CCCCC[C@H](CC(=O)NO)C(=O)N[C@H](C(=O)N1CCC[C@H]1CO)C(C)C [Actinonin, actinonin, reference compound]" reading=0.88
compound="O=C(Cc1c[nH]c2ccc(Br)cc12)NO [AB47]" reading=2.56
compound="O=C(C[C@@H](CC1CCCC1)c1nc(Cc2coc3ccccc23)no1)NO [AT019]" reading=1.89
compound="O=C(Cn1cc(Cc2ccccc2)c2cc(Br)ccc21)NO [SMP289]" reading=2.85

* * *

Listed here: items and their measured log10 Ki.
# Assay Target: SaPDF (Streptococcus agalactiae serotype III, UniProt Q8E378, S2A)
# Construct: the recombinant protein contains all residues of the 204 amino acids mature protein; made in house; host or cells: E. coli Rosetta 2(DE3)pLysS
# Sequence (Q8E378 whole entry S2A): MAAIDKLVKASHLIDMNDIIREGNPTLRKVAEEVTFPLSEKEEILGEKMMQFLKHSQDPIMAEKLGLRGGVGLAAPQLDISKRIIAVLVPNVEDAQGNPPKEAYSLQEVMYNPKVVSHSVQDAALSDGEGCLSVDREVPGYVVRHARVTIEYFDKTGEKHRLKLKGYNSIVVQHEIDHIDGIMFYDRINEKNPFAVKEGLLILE
# Experimental Protocol: biochemical
# Cond: SaPDF KI*app, PDFI pre-incubated with enzyme 10 min at 37 °C, started by 2 mM Fo-Met-Ala-Ser; 40 nM SaPDF
Measurement Label: log10 Ki (log10 of the value in µM)

compound=O=C(C[C@@H](CC1CCCC1)c1nc(Cc2ccc3c(c2)OCO3)no1)NO assay_target="SaPDF (Streptococcus agalactiae serotype III, UniProt Q8E378, S2A)" measurement_label="log10 Ki" reading=-2.07
compound="CCCCC[C@H](CC(=O)NO)C(=O)N[C@H](C(=O)N1CCC[C@H]1CO)C(C)C [Actinonin, actinonin, reference compound]" assay_target="SaPDF (Streptococcus agalactiae serotype III, UniProt Q8E378, S2A)" measurement_label="log10 Ki" reading=-3.00
compound="CCCCC(CC(=O)NO)c1nc(Cc2ccc(-c3ccccc3)cc2)no1 (stereo not drawn)" assay_target="SaPDF (Streptococcus agalactiae serotype III, UniProt Q8E378, S2A)" measurement_label="log10 Ki" reading=-1.19
compound="CCCCC(CC(=O)NO)c1nc(Cc2ccc(C(F)(F)F)cc2)no1 (stereo not drawn)" assay_target="SaPDF (Streptococcus agalactiae serotype III, UniProt Q8E378, S2A)" measurement_label="log10 Ki" reading=-1.09
compound="CCCCC(CC(=O)NO)c1nc(Cc2ccc(F)cc2)no1 (stereo not drawn)" assay_target="SaPDF (Streptococcus agalactiae serotype III, UniProt Q8E378, S2A)" measurement_label="log10 Ki" reading=-2.40
compound=CCCC[C@H](CC(=O)NO)c1nc(Cc2ccc(OC(F)(F)F)cc2)no1 assay_target="SaPDF (Streptococcus agalactiae serotype III, UniProt Q8E378, S2A)" measurement_label="log10 Ki" reading=-1.29
compound=CCCC[C@H](CC(=O)NO)c1nc(Cc2coc3ccccc23)no1 assay_target="SaPDF (Streptococcus agalactiae serotype III, UniProt Q8E378, S2A)" measurement_label="log10 Ki" reading=-0.91
compound=CC(C)(C)OC(=O)N[C@@H](Cc1ccccc1)CN(O)C=O assay_target="SaPDF (Streptococcus agalactiae serotype III, UniProt Q8E378, S2A)" measurement_label="log10 Ki" reading=-0.34
compound="CCCCC(CC(=O)NO)c1nc(-c2ccc(C(F)(F)F)cc2)no1 (stereo not drawn)" assay_target="SaPDF (Streptococcus agalactiae serotype III, UniProt Q8E378, S2A)" measurement_label="log10 Ki" reading=-0.37
compound=O=C(Cc1c[nH]c2ccc(Br)cc12)NO assay_target="SaPDF (Streptococcus agalactiae serotype III, UniProt Q8E378, S2A)" measurement_label="log10 Ki" reading=-1.14
compound=O=C(C[C@@H](CC1CCCC1)c1nc(Cc2coc3ccccc23)no1)NO assay_target="SaPDF (Streptococcus agalactiae serotype III, UniProt Q8E378, S2A)" measurement_label="log10 Ki" reading=-2.12
compound=O=C(Cc1cn(Cc2ccccc2)c2ccc(Br)cc12)NO assay_target="SaPDF (Streptococcus agalactiae serotype III, UniProt Q8E378, S2A)" measurement_label="log10 Ki" reading=-0.60
compound=CCCC[C@H](CC(=O)NO)c1nc(Cc2ccc(C(=O)O)cc2)no1 assay_target="SaPDF (Streptococcus agalactiae serotype III, UniProt Q8E378, S2A)" measurement_label="log10 Ki" reading=-0.70
compound="CCCCC(CC(=O)NO)c1nc(Cc2ccc3c(c2)OCO3)no1 (stereo not drawn)" assay_target="SaPDF (Streptococcus agalactiae serotype III, UniProt Q8E378, S2A)" measurement_label="log10 Ki" reading=-1.26
compound="CCCCC(CC(=O)NO)c1nc(Cc2ccc(C(=O)OC)cc2)no1 (stereo not drawn)" assay_target="SaPDF (Streptococcus agalactiae serotype III, UniProt Q8E378, S2A)" measurement_label="log10 Ki" reading=-1.74
compound="CCCCC(CC(=O)NO)c1nc(Cc2ccc(C)cc2)no1 (stereo not drawn)" assay_target="SaPDF (Streptococcus agalactiae serotype III, UniProt Q8E378, S2A)" measurement_label="log10 Ki" reading=-0.40
compound=O=C(Cn1cc(Cc2ccccc2)c2cc(Br)ccc21)NO assay_target="SaPDF (Streptococcus agalactiae serotype III, UniProt Q8E378, S2A)" measurement_label="log10 Ki" reading=-0.15
compound="CCCCC(CC(=O)NO)c1nc(Cc2nc3ccccc3s2)no1 (stereo not drawn)" assay_target="SaPDF (Streptococcus agalactiae serotype III, UniProt Q8E378, S2A)" measurement_label="log10 Ki" reading=-1.07

* * *

# Assay Target: EcPDF (Escherichia coli, UniProt P0A6K3)
# Construct: made in house
# Sequence (P0A6K3 whole entry): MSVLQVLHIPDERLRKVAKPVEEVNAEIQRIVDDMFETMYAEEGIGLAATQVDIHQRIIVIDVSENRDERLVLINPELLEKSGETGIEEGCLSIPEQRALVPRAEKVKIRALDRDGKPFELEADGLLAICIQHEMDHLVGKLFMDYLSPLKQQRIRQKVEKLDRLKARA
# Experimental Protocol: PDF inhibition, formate dehydrogenase-coupled spectrophotometric assay (EcPDF)
# Format: biochemical
# Cond: no pre-incubation, assay initiated by addition of enzyme; 10 nM EcPDF; 37 °C; read-out: EcPDF KI
Measurement Label: Ki

compound="CCCCC(CC(=O)NO)c1nc(Cc2ccc3c(c2)OCO3)no1 (stereo not shown)" assay_target="EcPDF (Escherichia coli, UniProt P0A6K3)" reading="25 nM"

* * *

# Assay Target: AtPDF1B (Arabidopsis thaliana, UniProt Q9FUZ2)
# Construct: made in house
# Sequence (Q9FUZ2 83-273): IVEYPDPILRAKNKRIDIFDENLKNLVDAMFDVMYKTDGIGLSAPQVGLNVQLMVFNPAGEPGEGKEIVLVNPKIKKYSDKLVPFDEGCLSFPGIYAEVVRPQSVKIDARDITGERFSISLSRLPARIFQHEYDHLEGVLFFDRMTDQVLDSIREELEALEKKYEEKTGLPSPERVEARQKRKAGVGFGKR
# Experimental Protocol: PDF inhibition, formate dehydrogenase-coupled spectrophotometric assay (AtPDF1B)
# Type: biochemical
# Cond: PDFI pre-incubated with enzyme 10 min at 37 °C; 100 nM AtPDF1B; read-out: AtPDF1B KI*app
Measurement Label: Ki

structure_smiles=CCCC[C@H](CC(=O)NO)c1nc(Cc2ccc(C(=O)O)cc2)no1 reading="~10 µM"

* * *

# System: E. aerogenes Ea294, Ea289 derivative AcrAB-
# Experimental Protocol: MIC by microdilution, E. aerogenes Ea294
# Type: cell-based, Enterobacter aerogenes
# Cond: Klebsiella aerogenes, 18 h, read-out: MIC Ea294
Measurement Label: MIC

compound=CCCC[C@H](CC(=O)NO)c1nc(Cc2coc3ccccc23)no1 measurement_label=MIC reading="> 128 µg/mL"
compound=CCCC[C@H](CC(=O)NO)c1nc(Cc2ccc(OC(F)(F)F)cc2)no1 measurement_label=MIC reading="> 128 µg/mL"
compound="CC(C)(O/N=C(\\C(=O)N[C@@H]1C(=O)N2C(C(=O)[O-])=C(C[n+]3ccccc3)CS[C@H]12)c1csc(N)n1)C(=O)O [Ceftazidim, ceftazidime, reference compound]" measurement_label=MIC reading="> 128 µg/mL"

* * *

# Assay Target: EcPDF (Escherichia coli)
# Construct: made in house
# Experimental Protocol: PDF inhibition, formate dehydrogenase-coupled spectrophotometric assay (EcPDF)
# Type: biochemical
# Cond: EcPDF KI*app, PDFI pre-incubated with enzyme 10 min at 37 °C, started by 2 mM Fo-Met-Ala-Ser; 10 nM EcPDF
Measurement Label: log10 Ki (log10 of the value in nM)

compound=CCCC[C@H](CC(=O)NO)c1nc(Cc2coc3ccccc23)no1 assay_target="EcPDF (Escherichia coli)" measurement_label="log10 Ki" reading=1.00
compound=CCCC[C@H](CC(=O)NO)c1nc(Cc2ccc(OC(F)(F)F)cc2)no1 assay_target="EcPDF (Escherichia coli)" measurement_label="log10 Ki" reading=1.90
compound=CCCC[C@H](CC(=O)NO)c1nc(Cc2ccc(C(=O)O)cc2)no1 assay_target="EcPDF (Escherichia coli)" measurement_label="log10 Ki" reading=1.88
compound=O=C(Cc1cn(Cc2ccccc2)c2ccc(Br)cc12)NO assay_target="EcPDF (Escherichia coli)" measurement_label="log10 Ki" reading=1.30
compound="CCCCC(CC(=O)NO)c1nc(Cc2ccc(C(F)(F)F)cc2)no1 (stereo not shown)" assay_target="EcPDF (Escherichia coli)" measurement_label="log10 Ki" reading=1.26
compound="CCCCC(CC(=O)NO)c1nc(Cc2ccc(F)cc2)no1 (stereo not shown)" assay_target="EcPDF (Escherichia coli)" measurement_label="log10 Ki" reading=0.70
compound=O=C(C[C@@H](CC1CCCC1)c1nc(Cc2ccc3c(c2)OCO3)no1)NO assay_target="EcPDF (Escherichia coli)" measurement_label="log10 Ki" reading=0.28
compound="CCCCC(CC(=O)NO)c1nc(-c2ccc(C(F)(F)F)cc2)no1 (stereo not shown)" assay_target="EcPDF (Escherichia coli)" measurement_label="log10 Ki" reading=2.52
compound=O=C(Cc1c[nH]c2ccc(Br)cc12)NO assay_target="EcPDF (Escherichia coli)" measurement_label="log10 Ki" reading=1.59
compound="CCCCC(CC(=O)NO)c1nc(Cc2ccc(-c3ccccc3)cc2)no1 (stereo not shown)" assay_target="EcPDF (Escherichia coli)" measurement_label="log10 Ki" reading=1.82

src = paper PMC5071857
